Where these numbers come from: patent US20120135923A1

target: hMC4-R (human) (UniProt P32245); assay: competition with [125I]-NDP-α-MSH, CHO-K1 membranes
Sequence (P32245 whole entry): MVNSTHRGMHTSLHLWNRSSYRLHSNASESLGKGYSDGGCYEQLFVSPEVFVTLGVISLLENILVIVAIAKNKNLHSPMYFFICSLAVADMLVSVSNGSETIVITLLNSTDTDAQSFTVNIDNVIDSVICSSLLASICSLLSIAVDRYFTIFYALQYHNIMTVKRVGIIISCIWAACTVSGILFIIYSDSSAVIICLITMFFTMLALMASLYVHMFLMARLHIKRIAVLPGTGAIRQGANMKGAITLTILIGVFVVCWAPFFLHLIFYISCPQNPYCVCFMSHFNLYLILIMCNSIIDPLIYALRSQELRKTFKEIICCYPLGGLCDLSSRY
Bridge positions count the residues as written; N and C are the ends. Square brackets hold non-standard residues; d marks the D form. Ends that are not written are not given here. Bip = N[C@@H](Cc1ccc(-c2ccccc2)cc1)C(=O)O; 1Nal = N[C@@H](Cc1cccc2ccccc12)C(=O)O; 2Nal = N[C@@H](Cc1ccc2ccccc2c1)C(=O)O; d2Nal = N[C@H](Cc1ccc2ccccc2c1)C(=O)O; Nle = CCCC[C@H](N)C(=O)O; Ahx = NCCCCCC(=O)O; GABA = NCCCC(=O)O; βAla = NCCC(=O)O
parameter: Ki (nM)
Form entry: value (nM) — number only.

Query Ac-[Nle]C[dA]H[d2Nal]R[2Nal]C-NH2 (disulfide 2-8; SMILES CCCC[C@H](NC(C)=O)C(=O)N[C@H]1CSSC[C@@H](C(N)=O)NC(=O)[C@H](Cc2ccc3ccccc3c2)NC(=O)[C@H](CCCNC(=N)N)NC(=O)[C@@H](Cc2ccc3ccccc3c2)NC(=O)[C@H](Cc2c[nH]cn2)NC(=O)[C@@H](C)NC1=O) [Ac-Nle-c(Cys-D-Ala-His-D-2-Nal-Arg-2-Nal-Cys)-NH2] yields Ki of 2.53

Query [dF]CH[dF]R[Bip][βAla][dC]T-NH2 (disulfide 2-8; N-terminus assumed; SMILES C[C@@H](O)[C@H](NC(=O)[C@H]1CSSC[C@H](NC(=O)[C@H](N)Cc2ccccc2)C(=O)N[C@@H](Cc2c[nH]cn2)C(=O)N[C@H](Cc2ccccc2)C(=O)N[C@@H](CCCNC(=N)N)C(=O)N[C@@H](Cc2ccc(-c3ccccc3)cc2)C(=O)NCCC(=O)N1)C(N)=O) [D-Phe-c(Cys-His-D-Phe-Arg-Bip-β-Ala-D-Cys)-Thr-NH2] yields Ki of 583

Query Ac-[Nle]CH[d2Nal]RW[Ahx]C-NH2 (disulfide 2-8) [Ac-Nle-c(Cys-His-D-2-Nal-Arg-Trp-Ahx-Cys)-NH2] yields Ki of 0.998

Query Ac-[Nle]C[dA]H[d2Nal]R[1Nal]C-NH2 (disulfide 2-8; SMILES CCCC[C@H](NC(C)=O)C(=O)N[C@H]1CSSC[C@@H](C(N)=O)NC(=O)[C@H](Cc2cccc3ccccc23)NC(=O)[C@H](CCCNC(=N)N)NC(=O)[C@@H](Cc2ccc3ccccc3c2)NC(=O)[C@H](Cc2c[nH]cn2)NC(=O)[C@@H](C)NC1=O) [Ac-Nle-c(Cys-D-Ala-His-D-2-Nal-Arg-1-Nal-Cys)-NH2] yields Ki of 3.07

Query [dF]CH[dF]RW[GABA][dC]T-NH2 (disulfide 2-8; N-terminus assumed; SMILES C[C@@H](O)[C@H](NC(=O)[C@H]1CSSC[C@H](NC(=O)[C@H](N)Cc2ccccc2)C(=O)N[C@@H](Cc2c[nH]cn2)C(=O)N[C@H](Cc2ccccc2)C(=O)N[C@@H](CCCNC(=N)N)C(=O)N[C@@H](Cc2c[nH]c3ccccc23)C(=O)NCCCC(=O)N1)C(N)=O) [D-Phe-c(Cys-His-D-Phe-Arg-Trp-Gaba-D-Cys)-Thr-NH2] yields Ki of 4.75
